# credit: patent US20210388087A1

fold change of affinity overview
Target: T1, Human CD3eg linker (human)
T1 construct: Single-chain construct; also called recombinant human CD3
T1 chain: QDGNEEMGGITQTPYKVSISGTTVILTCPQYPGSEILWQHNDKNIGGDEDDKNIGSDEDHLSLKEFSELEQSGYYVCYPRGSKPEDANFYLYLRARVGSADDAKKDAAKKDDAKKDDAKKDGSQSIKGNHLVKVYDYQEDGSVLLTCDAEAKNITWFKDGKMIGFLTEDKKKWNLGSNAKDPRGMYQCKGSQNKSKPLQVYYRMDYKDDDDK
Assay: SPR; fold vs parent H183/L072
# number then unit; no other words

The examples below pair each entry with its known result.
{"Binder": "H183/L072 VL T97K (antibody, name in Kabat numbering, V domains shown) VH: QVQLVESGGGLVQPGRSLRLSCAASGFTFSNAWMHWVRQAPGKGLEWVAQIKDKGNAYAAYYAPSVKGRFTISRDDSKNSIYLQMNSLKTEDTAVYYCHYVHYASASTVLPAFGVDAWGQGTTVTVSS VL: DIVMTQSPLSLPVTPGEPASISCQASQELVHMNRNTYLHWYQQKPGQAPRLLIYKVSNRFPGVPDRFSGSGSGTDFTLKISRVEAEDVGVYYCAQGTSVPFKFGQGTKLEIK", "Endpoint result": "0.6 fold"}
{"Binder": "H183/L072 VL N53G (antibody, name in Kabat numbering, V domains shown) VH: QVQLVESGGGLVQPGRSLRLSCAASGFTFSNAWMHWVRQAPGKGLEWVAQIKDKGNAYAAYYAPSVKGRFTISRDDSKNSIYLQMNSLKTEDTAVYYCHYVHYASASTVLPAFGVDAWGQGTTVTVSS VL: DIVMTQSPLSLPVTPGEPASISCQASQELVHMNRNTYLHWYQQKPGQAPRLLIYKVSGRFPGVPDRFSGSGSGTDFTLKISRVEAEDVGVYYCAQGTSVPFTFGQGTKLEIK", "Endpoint result": "0.6 fold"}

Turning now to a further binder:
Query string: For H183/L072 VL S93L (antibody, name in Kabat numbering, V domains shown) VH: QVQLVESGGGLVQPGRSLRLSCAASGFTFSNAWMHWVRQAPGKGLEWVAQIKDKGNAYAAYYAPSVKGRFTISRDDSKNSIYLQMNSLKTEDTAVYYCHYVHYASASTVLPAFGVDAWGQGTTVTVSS VL: DIVMTQSPLSLPVTPGEPASISCQASQELVHMNRNTYLHWYQQKPGQAPRLLIYKVSNRFPGVPDRFSGSGSGTDFTLKISRVEAEDVGVYYCAQGTLVPFTFGQGTKLEIK , write its fold change of affinity.
Result string: 0.9 fold
